# protocolDetails: qHTS for inhibitors of Vif-A3G interactions: Cherry picks; also: nearly all actives have a fitted effect of over 80% in size
# protocolConditions: HeLa A3G-eYFP + Vif, 24 h; eYFP fluorescence increase; series mostly up to 36.9 µM
In all, about 2,100 compounds went through this assay and about 650 (31%) were called active. About 16% were inconclusive and are not listed. Calls follow the shape of the dose curve; as a rule, active = well fitted inhibition curve with a large enough effect; inconclusive = small, poorly fitted or top-dose-only effect; inactive = flat fitted curve, though single readings scatter. The list shows a part of the results.
Pick one: active, inactive

Solved cases (6 shown):
CNC(=S)N/N=C(\C)c1ccc(Cl)s1 :: inactive
CCOc1cc(/C=C/C(=O)c2ccc(OC)c(CN3CCOCC3)c2)cc(Br)c1O :: active
CCOC(=O)/C=c1/s/c(=C/c2ccc3cc(OC)ccc3c2)c(=O)n1CC(=O)NCC1CCCO1 (stereo unspecified) :: active
NC(=O)CSc1nc2c(sc3ccccc32)c(=O)n1CCCC(=O)NCC1CCCO1 (stereo unspecified) :: inactive
CCN(CC)c1nc(C=Cc2ccc(N(C)C)cc2)c2nccnc2n1 :: active
CCN(Cc1ccccc1)c1ccc(/C=C(\C#N)c2ccccn2)cc1 :: inactive

Exercise: Short answer needed: outcome of this test for CCOc1ccc(N/C=C/C(=O)c2cc(OC)c(OC)c(OC)c2)cc1 ?
Solution: inactive

Exercise: Write down the call the test reported for this compound. Item: COc1cc(/C=C/C(=O)c2ccc(O)cc2)ccc1OCC#N
Solution: inactive

Exercise: Could you kindly confirm the outcome this assay logged for CCOC(=O)/C=c1\s/c(=C\c2ccccc2C)c(=O)n1CC(=O)NCc1ccc2c(c1)OCO2 ?
Solution: active

Exercise: Recorded call for CN1C(=O)/C(=C/c2ccccc2OCc2ccc(F)cc2)N(C)C1=S ?
Solution: active

Exercise: Called result for O=C(c1[nH]c(C(F)(F)F)nc1-c1ccccc1)N1CCN(c2ccccc2)CC1
Solution: inactive

Exercise: Hello, I am checking results. What call was entered for COc1ccccc1N1C(=O)c2cccc3c(C(=O)O)ccc(c23)C1=O ?
Solution: inactive

Exercise: Test call for this compound, please: CCCOc1cc(N(CC)CC)ccc1/C=C(/C#N)c1nc2ccc(C)cc2[nH]1
Solution: active

Exercise: Any idea what this test logged for Cc1cccc(C=Nc2ccccc2C(N)=O)c1 ?
Solution: inactive

Exercise: Give the logged outcome of this assay for the following compound: O=C(N/N=C/c1ccc([N+](=O)[O-])o1)c1cc(-c2ccc(-c3ccccc3)cc2)nc2ccccc12
Solution: inactive

Exercise: Field: outcome | Entry: C=CCSc1nnc(C)c(/C=C/Nc2ccc(Cl)cc2)n1
Solution: active

====

# protocolDetails: qHTS for inhibitors of Vif-A3G interactions: Cherry picks; also: nearly all actives have a fitted effect of over 80% in size
# protocolConditions: HeLa A3G-eYFP + Vif (tagged APOBEC3G with the HIV-1 protein that degrades it), 24 h; eYFP fluorescence increase; series mostly up to 36.9 µM
Out of some 2,100 compounds screened, about 650 (31%) were called active. Inconclusive results (about 16%) are left out. Calls come from the whole dose curve; as a rule, active = well fitted inhibition curve with a large enough effect; inconclusive = small, poorly fitted or top-dose-only effect; inactive = flat fitted curve, though single readings scatter. Some of the results follow.
Allowed answers: active, inactive

Cc1ccc(NC(=O)/C=C/c2ccc([N+](=O)[O-])s2)cc1 :: active
CCOC(=O)CSC1=C(C#N)C(c2ccc(C)s2)CC(=O)N1 (stereo unspecified) :: inactive
N#C/C(=C\c1ccc(Cl)cc1)c1nc2ncccc2[nH]1 :: inactive

Exercise: How did this test come out for Cc1ccc(NC(=O)C(=Cc2ccc(C(=O)O)cc2)C(=O)Nc2ccc(C)cc2C)c(C)c1 ?
Solution: inactive

Exercise: Field: outcome | Entry: CC(=O)/C(=C\N(C)C)Sc1ccc(Cl)cc1
Solution: inactive

Exercise: Look up the recorded call for COc1ccc(C2=NOC(C(=O)NCc3ccc(F)cc3)C2)cc1 (stereo unspecified) in this test.
Solution: inactive

Exercise: Recorded test outcome, item CC(=Nc1ccccc1)C1=C(O)C(Cc2ccccc2)NC1=O (stereo unspecified)
Solution: inactive

Exercise: For COc1ccc(-c2cc(NC(C)=O)c3ncc(-c4cc(OC)c(OC)c(OC)c4)n3c2)cn1 , what call appears in the results of this test?
Solution: inactive

Exercise: Recorded test call requested for Cc1c(C(=O)Nc2cccnc2)oc2ccc(Br)cc12
Solution: inactive

Exercise: Please state the recorded outcome for this compound: CCOc1ccc(/C=N/NC(=O)c2cc3c(OC)cc(OC)c(OC)c3[nH]2)cc1
Solution: inactive

Exercise: Identify the outcome logged in this assay for the compound shown: O=C(CCCCn1c(=O)c2ccccc2n(Cc2ccc(F)cc2)c1=O)NCc1ccco1
Solution: inactive

Exercise: What is the recorded call for this compound in the test? CN1C2=CC=CC=CC2=[N+](C)C12C([N+](=O)[O-])=CC(=[N+]([O-])[O-])C=C2[N+](=O)[O-] (stereo unspecified)
Solution: inactive

Exercise: I would be grateful if you could indicate the recorded call for O=C1OC(/C(=C\Nc2cc(Cl)ccc2O)[N+](=O)[O-])c2ccccc21 (stereo unspecified) .
Solution: inactive

Exercise: What classification did Cc1cccc(Cn2c(=O)n(CCCC(=O)NCc3ccco3)c(=O)c3ccccc32)c1 end up with in this test?
Solution: inactive

Exercise: What is the recorded call for this compound in the test? CC(=O)c1cccc(NC(=S)N2c3ccccc3CC2C)c1 (stereo unspecified)
Solution: inactive

Exercise: For S=C(Nc1cccc2ccccc12)NN1CCCCCC1 , which call appears in the assay record?
Solution: inactive

Exercise: Field: outcome | Entry: COc1cc(C(=O)Nc2ccc3c(c2)ncn3C)cc(OC)c1OC
Solution: inactive

Exercise: So what was the verdict on Cc1cc(C)nc(NC(=S)Nc2cccc(Cl)c2Cl)c1 in this test?
Solution: inactive

Exercise: What did the test return for COc1ccc(COc2cc(-c3cccc(OC)c3)nc3ccc(NC(=O)C(C)C)cc23)cc1 ?
Solution: inactive

Exercise: // outcome(item) with item = Cc1ccc(-c2ccc(/C=N/NC(N)=S)o2)cc1
Solution: inactive
